# Target Or System: Cytochrome P450 2C9 (Homo sapiens, UniProt P11712)
# Sequence (P11712 whole entry): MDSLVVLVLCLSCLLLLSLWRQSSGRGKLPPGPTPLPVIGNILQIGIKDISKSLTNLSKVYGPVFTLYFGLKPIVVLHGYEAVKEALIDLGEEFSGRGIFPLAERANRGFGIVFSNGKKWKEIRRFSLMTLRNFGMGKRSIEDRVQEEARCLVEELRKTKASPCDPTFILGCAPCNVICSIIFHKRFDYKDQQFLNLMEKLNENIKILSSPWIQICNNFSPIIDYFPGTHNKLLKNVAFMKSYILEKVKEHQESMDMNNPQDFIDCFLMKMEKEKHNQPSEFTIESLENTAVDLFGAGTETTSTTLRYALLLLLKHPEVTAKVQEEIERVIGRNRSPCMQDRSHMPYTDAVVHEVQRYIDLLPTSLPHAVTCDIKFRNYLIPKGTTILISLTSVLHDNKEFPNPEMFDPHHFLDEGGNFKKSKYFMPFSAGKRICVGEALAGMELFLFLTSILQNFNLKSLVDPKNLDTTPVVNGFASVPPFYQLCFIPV
Quantity Name: pEC50
On this scale, pEC50 is minus log10 of a concentration expressed in M (mol/L).

Entry under review: OC[C@H]1CC[C@H](c2ccc(O)cc2)CC1 . Reported pEC50? 4.47

====

Listing of recorded EC50 by entry.
# Target Or System: Estrogen receptor beta (Homo sapiens, UniProt Q92731)
# Sequence (Q92731 whole entry): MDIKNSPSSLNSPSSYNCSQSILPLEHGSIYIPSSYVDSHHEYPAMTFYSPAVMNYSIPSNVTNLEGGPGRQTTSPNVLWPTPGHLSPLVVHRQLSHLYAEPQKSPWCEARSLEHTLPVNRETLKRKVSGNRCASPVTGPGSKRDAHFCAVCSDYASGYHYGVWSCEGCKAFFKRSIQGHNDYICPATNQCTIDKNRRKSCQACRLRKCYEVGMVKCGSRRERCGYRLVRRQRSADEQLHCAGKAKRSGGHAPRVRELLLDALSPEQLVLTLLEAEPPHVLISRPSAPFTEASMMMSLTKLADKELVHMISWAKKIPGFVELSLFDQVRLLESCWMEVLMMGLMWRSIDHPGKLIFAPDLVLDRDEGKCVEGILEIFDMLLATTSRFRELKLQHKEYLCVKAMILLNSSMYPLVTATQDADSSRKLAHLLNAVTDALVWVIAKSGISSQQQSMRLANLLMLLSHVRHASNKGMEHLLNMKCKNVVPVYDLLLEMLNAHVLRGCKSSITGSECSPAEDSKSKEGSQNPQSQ
Numeric only. Scale: µM

Worked set:
smi=Oc1ccc([C@]23CC[C@H](CC2)CO3)cc1 measured_result=0.25
smi=OC[C@]1(O)CC[C@H](c2ccc(O)cc2)CC1 measured_result=2.7

Entry under review: O=C1CCC(c2ccc(O)cc2)CC1 . Reported EC50? 19

Also need C=C1CCC(c2ccc(O)c(/C=N/O)c2)CC1 , thanks. 0.225

Also need Oc1ccc([C@H]2CC[C@H](O)CC2)cc1 , thanks. 7.52

Also need C=C1CCC(c2ccc(O)c(C=O)c2)CC1 , thanks. 21

Also need C[C@]1(O)CC[C@@H](c2ccc(O)cc2)CC1 , thanks. 6.29

====

# Target Or System: Cytochrome P450 3A4 (Homo sapiens, UniProt P08684)
# Sequence (P08684 whole entry): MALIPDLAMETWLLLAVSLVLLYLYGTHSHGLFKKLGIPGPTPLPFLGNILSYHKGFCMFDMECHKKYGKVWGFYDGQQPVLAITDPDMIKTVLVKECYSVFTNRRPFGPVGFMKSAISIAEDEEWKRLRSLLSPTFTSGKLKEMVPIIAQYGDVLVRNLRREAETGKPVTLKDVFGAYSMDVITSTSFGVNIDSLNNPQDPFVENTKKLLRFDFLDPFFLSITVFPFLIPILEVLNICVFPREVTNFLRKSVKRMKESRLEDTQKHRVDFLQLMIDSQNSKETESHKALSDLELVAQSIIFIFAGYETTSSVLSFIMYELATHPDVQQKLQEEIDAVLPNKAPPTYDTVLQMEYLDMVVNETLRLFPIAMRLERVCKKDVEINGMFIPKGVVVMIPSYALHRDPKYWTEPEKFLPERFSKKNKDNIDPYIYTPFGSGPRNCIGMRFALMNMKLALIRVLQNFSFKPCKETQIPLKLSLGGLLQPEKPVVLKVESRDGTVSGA
Quantity Name: pEC50
On this scale, pEC50 is minus log10 of a concentration expressed in M (mol/L).

Entry under review: OC[C@H]1CC[C@H](c2ccc(O)cc2)CC1 . Reported pEC50? 4.05

====

These molecules were tested on Estrogen receptor (Homo sapiens); EC50 is the recorded read-out.

Worked set:
molecule=OC[C@H]1CC[C@H](c2ccc(O)cc2)CC1 measured_result="20.4 µM"
molecule="OCCC1CCC(c2ccc(O)cc2)CC1 (stereo not given)" measured_result="> 50 µM"

Entry under review: CC1CCC(c2ccc(O)cc2)CC1 (stereo not given) . Reported EC50? > 10 µM

Also need C=C1CCC(c2ccc(O)cc2)CC1 , thanks. > 10 µM

Also need OCC1CC=C(c2ccc(O)cc2)CC1 (racemic) , thanks. > 20 µM

====

Listing of recorded pEC50 by entry.
# Target Or System: UniProt:Q92731
On this scale, pEC50 is minus log10 of a concentration expressed in M (mol/L).

molecule="OCC=C1CCC(c2ccc(O)cc2)CC1 (racemic)" quantity_name=pEC50 measured_result=6.17

Look up pEC50 with UniProt:Q92731 for this molecule: ON=C1CCC(c2ccc(O)cc2)CC1 (configuration not stated) 5.80

====

Sequence of the target: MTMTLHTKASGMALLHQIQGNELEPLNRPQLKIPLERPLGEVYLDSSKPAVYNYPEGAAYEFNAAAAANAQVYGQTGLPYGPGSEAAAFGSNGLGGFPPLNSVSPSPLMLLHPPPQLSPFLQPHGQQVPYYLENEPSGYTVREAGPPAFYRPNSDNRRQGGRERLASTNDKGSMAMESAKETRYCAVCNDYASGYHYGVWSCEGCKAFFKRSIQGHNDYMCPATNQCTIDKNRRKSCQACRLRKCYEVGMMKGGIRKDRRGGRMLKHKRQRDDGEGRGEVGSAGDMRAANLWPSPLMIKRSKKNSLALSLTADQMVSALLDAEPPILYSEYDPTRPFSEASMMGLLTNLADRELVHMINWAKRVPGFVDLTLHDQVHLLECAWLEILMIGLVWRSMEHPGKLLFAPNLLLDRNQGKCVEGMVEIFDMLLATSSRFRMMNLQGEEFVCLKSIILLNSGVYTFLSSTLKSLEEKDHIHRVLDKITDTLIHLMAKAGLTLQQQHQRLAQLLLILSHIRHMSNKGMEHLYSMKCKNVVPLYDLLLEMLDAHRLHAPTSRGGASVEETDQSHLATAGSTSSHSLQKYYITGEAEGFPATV
Quantity Name: EC50

Entry under review: OC[C@H]1CC[C@H](c2ccc(O)cc2)CC1 . Reported EC50? 289 nM
